target: UBE2N; assay: reporter assay of Huesken 2005; conditions: siRNA; further: test concentration or dose not given here
Oligonucleotides are given in HELM: sugar(base)linkage, 5' to 3'; d 2'-deoxyribose, r ribose, m 2'-O-methylribose, p phosphate. ss, as = sense and antisense strand
I'd appreciate it if you could supply normalised inhibition (eCFP-eYFP dual reporter) values for the items below.
Kindly write the number and append the unit.

Param item: RNA1{r(U)p.r(U)p.r(U)p.r(A)p.r(A)p.r(A)p.r(C)p.r(U)p.r(U)p.r(G)p.r(A)p.r(A)p.r(C)p.r(U)p.r(A)p.r(U)p.r(U)p.r(C)p.r(C)p.d(T)p.d(T)}|RNA2{r(G)p.r(G)p.r(A)p.r(A)p.r(U)p.r(A)p.r(G)p.r(U)p.r(U)p.r(C)p.r(A)p.r(A)p.r(G)p.r(U)p.r(U)p.r(U)p.r(A)p.r(A)p.r(A)p.d(A)p.d(G)}$$$RNA1{StrandType:ss}|RNA2{StrandType:as}$ ; param system: UBE2N; output normalised inhibition (eCFP-eYFP dual reporter): 29.9%

Param item: RNA1{r(A)p.r(U)p.r(C)p.r(A)p.r(U)p.r(C)p.r(C)p.r(U)p.r(A)p.r(A)p.r(U)p.r(G)p.r(U)p.r(A)p.r(G)p.r(A)p.r(C)p.r(A)p.r(A)p.d(T)p.d(T)}|RNA2{r(U)p.r(U)p.r(G)p.r(U)p.r(C)p.r(U)p.r(A)p.r(C)p.r(A)p.r(U)p.r(U)p.r(A)p.r(G)p.r(G)p.r(A)p.r(U)p.r(G)p.r(A)p.r(U)p.d(A)p.d(A)}$$$RNA1{StrandType:ss}|RNA2{StrandType:as}$ ; param system: UBE2N; output normalised inhibition (eCFP-eYFP dual reporter): 46.4%

Param item: RNA1{r(A)p.r(A)p.r(G)p.r(C)p.r(C)p.r(G)p.r(A)p.r(A)p.r(C)p.r(C)p.r(A)p.r(G)p.r(A)p.r(U)p.r(G)p.r(A)p.r(G)p.r(A)p.r(G)p.d(T)p.d(T)}|RNA2{r(C)p.r(U)p.r(C)p.r(U)p.r(C)p.r(A)p.r(U)p.r(C)p.r(U)p.r(G)p.r(G)p.r(U)p.r(U)p.r(C)p.r(G)p.r(G)p.r(C)p.r(U)p.r(U)p.d(T)p.d(G)}$$$RNA1{StrandType:ss}|RNA2{StrandType:as}$ ; param system: UBE2N; output normalised inhibition (eCFP-eYFP dual reporter): 88.3%

Param item: RNA1{r(C)p.r(U)p.r(U)p.r(U)p.r(G)p.r(A)p.r(G)p.r(G)p.r(G)p.r(A)p.r(G)p.r(G)p.r(G)p.r(A)p.r(C)p.r(U)p.r(U)p.r(U)p.r(U)p.d(T)p.d(T)}|RNA2{r(A)p.r(A)p.r(A)p.r(A)p.r(G)p.r(U)p.r(C)p.r(C)p.r(C)p.r(U)p.r(C)p.r(C)p.r(C)p.r(U)p.r(C)p.r(A)p.r(A)p.r(A)p.r(G)p.d(G)p.d(G)}$$$RNA1{StrandType:ss}|RNA2{StrandType:as}$ ; param system: UBE2N; output normalised inhibition (eCFP-eYFP dual reporter): 70.6%

Param item: RNA1{r(A)p.r(U)p.r(U)p.r(A)p.r(G)p.r(C)p.r(A)p.r(A)p.r(A)p.r(U)p.r(G)p.r(A)p.r(U)p.r(G)p.r(U)p.r(A)p.r(G)p.r(C)p.r(G)p.d(T)p.d(T)}|RNA2{r(C)p.r(G)p.r(C)p.r(U)p.r(A)p.r(C)p.r(A)p.r(U)p.r(C)p.r(A)p.r(U)p.r(U)p.r(U)p.r(G)p.r(C)p.r(U)p.r(A)p.r(A)p.r(U)p.d(G)p.d(G)}$$$RNA1{StrandType:ss}|RNA2{StrandType:as}$ ; param system: UBE2N; output normalised inhibition (eCFP-eYFP dual reporter): 34.2%

Param item: RNA1{r(A)p.r(G)p.r(A)p.r(A)p.r(U)p.r(A)p.r(C)p.r(C)p.r(C)p.r(A)p.r(A)p.r(U)p.r(G)p.r(G)p.r(C)p.r(A)p.r(G)p.r(C)p.r(C)p.d(T)p.d(T)}|RNA2{r(G)p.r(G)p.r(C)p.r(U)p.r(G)p.r(C)p.r(C)p.r(A)p.r(U)p.r(U)p.r(G)p.r(G)p.r(G)p.r(U)p.r(A)p.r(U)p.r(U)p.r(C)p.r(U)p.d(T)p.d(C)}$$$RNA1{StrandType:ss}|RNA2{StrandType:as}$ ; param system: UBE2N; output normalised inhibition (eCFP-eYFP dual reporter): 44.7%

Param item: RNA1{r(U)p.r(G)p.r(G)p.r(C)p.r(A)p.r(U)p.r(C)p.r(A)p.r(A)p.r(A)p.r(G)p.r(C)p.r(C)p.r(G)p.r(A)p.r(A)p.r(C)p.r(C)p.r(A)p.d(T)p.d(T)}|RNA2{r(U)p.r(G)p.r(G)p.r(U)p.r(U)p.r(C)p.r(G)p.r(G)p.r(C)p.r(U)p.r(U)p.r(U)p.r(G)p.r(A)p.r(U)p.r(G)p.r(C)p.r(C)p.r(A)p.d(G)p.d(G)}$$$RNA1{StrandType:ss}|RNA2{StrandType:as}$ ; param system: UBE2N; output normalised inhibition (eCFP-eYFP dual reporter): 81.6%

Param item: RNA1{r(A)p.r(G)p.r(C)p.r(C)p.r(C)p.r(A)p.r(A)p.r(G)p.r(C)p.r(C)p.r(A)p.r(U)p.r(A)p.r(G)p.r(A)p.r(A)p.r(A)p.r(C)p.r(A)p.d(T)p.d(T)}|RNA2{r(U)p.r(G)p.r(U)p.r(U)p.r(U)p.r(C)p.r(U)p.r(A)p.r(U)p.r(G)p.r(G)p.r(C)p.r(U)p.r(U)p.r(G)p.r(G)p.r(G)p.r(C)p.r(U)p.d(T)p.d(C)}$$$RNA1{StrandType:ss}|RNA2{StrandType:as}$ ; param system: UBE2N; output normalised inhibition (eCFP-eYFP dual reporter): 91.7%

Param item: RNA1{r(C)p.r(U)p.r(A)p.r(G)p.r(A)p.r(U)p.r(A)p.r(U)p.r(U)p.r(U)p.r(U)p.r(G)p.r(A)p.r(A)p.r(A)p.r(G)p.r(A)p.r(U)p.r(A)p.d(T)p.d(T)}|RNA2{r(U)p.r(A)p.r(U)p.r(C)p.r(U)p.r(U)p.r(U)p.r(C)p.r(A)p.r(A)p.r(A)p.r(A)p.r(U)p.r(A)p.r(U)p.r(C)p.r(U)p.r(A)p.r(G)p.d(A)p.d(C)}$$$RNA1{StrandType:ss}|RNA2{StrandType:as}$ ; param system: UBE2N; output normalised inhibition (eCFP-eYFP dual reporter): 85.6%

Param item: RNA1{r(A)p.r(C)p.r(G)p.r(U)p.r(U)p.r(U)p.r(C)p.r(A)p.r(U)p.r(G)p.r(A)p.r(C)p.r(C)p.r(A)p.r(A)p.r(A)p.r(A)p.r(U)p.r(U)p.d(T)p.d(T)}|RNA2{r(A)p.r(A)p.r(U)p.r(U)p.r(U)p.r(U)p.r(G)p.r(G)p.r(U)p.r(C)p.r(A)p.r(U)p.r(G)p.r(A)p.r(A)p.r(A)p.r(C)p.r(G)p.r(U)p.d(A)p.d(C)}$$$RNA1{StrandType:ss}|RNA2{StrandType:as}$ ; param system: UBE2N; output normalised inhibition (eCFP-eYFP dual reporter): 92.1%
